Test system: velvetleaf (Abutilon theophrasti)
Experiment: Test A pre-/postemergence plant response
Format: in vivo
Conditions: Postemergence, 125 g ai/ha; 0 to 100 scale where 0 is no effect and 100 is complete control
Readout type: Plant response rating, Velvetleaf
When you answer, write just the number.

Molecule: CCCc1ncc(C(=O)C2=C(O)CCCC2=O)c(=O)n1-c1cccc(C)c1 [Compound 79]
Observed measurement: 100
//
Molecule: O=C1CCCC(O)=C1C(=O)c1cnc(-c2ccccc2)n(C2CCCCCCC2)c1=O [Compound 215]
Observed measurement: 100
//
Molecule: Cc1cccc(-c2ncc(C(=O)C3=C(O)CCCC3=O)c(=O)n2-c2cc(F)ccc2C)c1 [Compound 178]
Observed measurement: 90
//
Molecule: CCCn1c(-c2ccco2)ncc(C(=O)C2=C(O)C3CCC(C3)C2=O)c1=O (centres unmarked) [Compound 230]
Observed measurement: 100
//
Molecule: CCn1c(-c2cccc(F)c2)ncc(C(=O)C2=C(O)CCCC2=O)c1=O [Compound 124]
Observed measurement: 100
//
Molecule: CCOCCn1c(-c2cc(F)cc(F)c2)ncc(C(=O)C2=C(O)CCCC2=O)c1=O [Compound 182]
Observed measurement: 100
//
Molecule: CCc1ccc(-n2c(-c3cccc(Br)c3)ncc(C(=O)C3=C(O)CCCC3=O)c2=O)cc1 [Compound 175]
Observed measurement: 100
//
Molecule: CCCn1c(-c2ccn(C)n2)ncc(C(=O)C2=C(O)CCCC2=O)c1=O [Compound 135]
Observed measurement: 100
//
Molecule: CCCCn1c(-c2ccccc2)ncc(C(=O)C2=C(O)C3CCC(C3)C2=O)c1=O (centres unmarked) [Compound 240]
Observed measurement: 100
//
Molecule: CCOCCn1c(-c2ccccc2)ncc(C(=O)C2=C(O)CCCC2=O)c1=O [Compound 96]
Observed measurement: 100

[ask] Hello, please tell me recorded Plant response rating, Velvetleaf for this one: O=C1CCCC(O)=C1C(=O)c1cnc(-c2ccccc2)n(C2CCCCCC2)c1=O [Compound 130]
[reply] 100

[ask] Determine its reported Plant response rating, Velvetleaf: O=C1CCCC(O)=C1C(=O)c1cnc(-c2cc(F)cc(F)c2)n(CC2CCCCC2)c1=O [Compound 163]
[reply] 100

[ask] For the molecule COCCn1c(-c2ccco2)ncc(C(=O)C2=C(O)CCCC2=O)c1=O [Compound 111] , report Plant response rating, Velvetleaf.
[reply] 100

[ask] Please supply the value of reported Plant response rating, Velvetleaf for the item O=C1CCCC(O)=C1C(=O)c1cnc(-c2ccccc2)n(C2CC[S+]([O-])CC2)c1=O (mixture of isomers) [Compound 169]
[reply] 100

[ask] State, in one line, measured Plant response rating, Velvetleaf of CCCCn1c(-c2cccc(C)c2)ncc(C(=O)C2=C(O)C3CCC(C3)C2=O)c1=O (centres unmarked) [Compound 232]
[reply] 70

[ask] For the molecule CCCn1c(-c2cccc(F)c2)ncc(C(=O)C2=C(O)CCCC2=O)c1=O [Compound 127] , report Plant response rating, Velvetleaf.
[reply] 100

[ask] Recall and state the measured Plant response rating, Velvetleaf for COc1ccc(-n2c(-c3cccc(Br)c3)ncc(C(=O)C3=C(O)CCCC3=O)c2=O)cc1 [Compound 176] .
[reply] 80

Origin of values: patent US8952024B2
